Here's a batch of molecules along with measured log10 IC50 for NP-1 (Homo sapiens).
Plainly stated, the numbers are log10 of IC50 given in nM.

q: Could you please provide reported log10 IC50 for N=C(N)NCCC[C@H](NC(=O)c1sccc1NS(=O)(=O)c1cccc(NCc2csc(N3CCNCC3)n2)c1)C(=O)O ? Thanks!
a: 2.20

q: Using known records, supply log10 IC50 for N=C(N)NCCC[C@H](NC(=O)c1sccc1NS(=O)(=O)c1cc(-c2ccccc2CN2CCC(N3CCOCC3)CC2)cc2c1OCC2)C(=O)O
a: 2.80

q: Provide log10 IC50 value for the following molecule: Cn1cncc1CNCc1cccc(-c2cc3c(c(S(=O)(=O)Nc4ccsc4C(=O)N[C@@H](CCCNC(=N)N)C(=O)O)c2)OCC3)c1
a: 2.51

q: Give reported log10 IC50 value for COC(=O)C1CCN(Cc2ccccc2-c2cc3c(c(S(=O)(=O)Nc4ccsc4C(=O)N[C@@H](CCCNC(=N)N)C(=O)O)c2)OCC3)CC1
a: 1.15

q: Kindly indicate its recorded log10 IC50. Item: N=C(N)NCCC[C@H](NC(=O)c1sccc1NS(=O)(=O)c1cc(-c2cccc(CNCc3ncc[nH]3)c2)cc2c1OCC2)C(=O)O
a: 2.80

q: Give the value of log10 IC50 reported for the following: N=C(N)NCCC[C@H](NC(=O)c1sccc1NS(=O)(=O)c1cc(-c2ccccc2CN2CCNCC2)cc2c1OCC2)C(=O)O
a: 3.30

q: # return recorded log10 IC50 for entry N=C(N)NCCC[C@H](NC(=O)c1sccc1NS(=O)(=O)c1cccc(NCc2csc(N3CCN(c4ccncc4)CC3)n2)c1)C(=O)O
a: 1.60

q: In one line, give reported log10 IC50 of the entry N=C(N)NCCC[C@H](NC(=O)c1sccc1NS(=O)(=O)c1cc(-c2cccc(CN3CCN(Cc4cccnc4)CC3)c2)cc2c1OCC2)C(=O)O .
a: 3.18

q: Please indicate log10 IC50 recorded for N=C(N)NCCC[C@H](NC(=O)c1sccc1NS(=O)(=O)c1cccc(NCc2csc(N3CCC(N4CCOCC4)CC3)n2)c1)C(=O)O
a: 2.50

q: Tell me log10 IC50 reported for N=C(N)NCCC[C@H](NC(=O)c1sccc1NS(=O)(=O)c1cc(-c2cccc(CN3CCN(c4ccncc4)CC3)c2)cc2c1OCC2)C(=O)O
a: 2.33

q: // Input: N=C(N)NCCC[C@H](NC(=O)c1sccc1NS(=O)(=O)c1cc(-c2cccc(CN3CCN(Cc4ccncc4)CC3)c2)cc2c1OCC2)C(=O)O . Output its log10 IC50 only.
a: 2.84

q: Consider the molecule N=C(N)NCCC[C@H](NC(=O)c1sccc1NS(=O)(=O)c1cc(-c2cccc(CNCc3cccnc3)c2)cc2c1OCC2)C(=O)O and give its recorded log10 IC50.
a: 3.08

* * *

- target or system: NP-1 (Homo sapiens)
- Sequence (O14786 22-923): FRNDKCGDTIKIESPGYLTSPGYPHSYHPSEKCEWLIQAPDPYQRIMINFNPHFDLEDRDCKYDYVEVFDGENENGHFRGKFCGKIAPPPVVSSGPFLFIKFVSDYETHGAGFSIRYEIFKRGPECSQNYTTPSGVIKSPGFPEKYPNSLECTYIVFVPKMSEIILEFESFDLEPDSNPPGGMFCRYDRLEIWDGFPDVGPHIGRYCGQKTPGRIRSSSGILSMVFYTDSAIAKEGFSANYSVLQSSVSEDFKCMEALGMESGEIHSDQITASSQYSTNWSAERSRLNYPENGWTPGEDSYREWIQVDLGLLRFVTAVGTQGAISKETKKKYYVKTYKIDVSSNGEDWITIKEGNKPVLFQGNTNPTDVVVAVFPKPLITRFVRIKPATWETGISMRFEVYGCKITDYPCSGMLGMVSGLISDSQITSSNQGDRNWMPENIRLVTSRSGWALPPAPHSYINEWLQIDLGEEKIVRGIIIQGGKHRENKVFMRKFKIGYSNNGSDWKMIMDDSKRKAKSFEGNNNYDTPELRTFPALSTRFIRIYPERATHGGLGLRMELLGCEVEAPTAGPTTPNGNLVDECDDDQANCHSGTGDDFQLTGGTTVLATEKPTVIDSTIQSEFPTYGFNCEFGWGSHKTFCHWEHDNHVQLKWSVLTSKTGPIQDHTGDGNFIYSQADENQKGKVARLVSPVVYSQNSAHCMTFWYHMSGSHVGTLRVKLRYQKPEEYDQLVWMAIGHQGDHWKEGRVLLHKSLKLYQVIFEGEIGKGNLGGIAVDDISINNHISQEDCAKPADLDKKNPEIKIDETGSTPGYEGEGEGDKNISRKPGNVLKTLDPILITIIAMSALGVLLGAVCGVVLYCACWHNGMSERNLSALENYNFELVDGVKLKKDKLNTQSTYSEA
- test: Biotinylated-VEGF-A165 (bt-VEGF-A165) binding to NP-1
- experimental parameters: 3 μM compound, read-out: Screen (% inhibition at 3 μM)
reported endpoint: inhibition at 3 µM (%)
Provide the reading as a plain figure in %.

q: Dear colleague, please send me the reported inhibition at 3 µM for N=C(N)NCCC[C@H](NC(=O)c1sccc1NS(=O)(=O)c1cc(-c2cccc(CNCc3ncc[nH]3)c2)cc2c1OCC2)C(=O)O [Compound 37] when you can.
a: 68

q: # return recorded inhibition at 3 µM for entry N=C(N)NCCC[C@H](NC(=O)c1sccc1NS(=O)(=O)c1cccc(NCc2csc(N3CCN(c4ccncc4)CC3)n2)c1)C(=O)O [Compound 57]
a: 98

q: Tell me measured inhibition at 3 µM for Cc1cc(CNCc2cccc(-c3cc4c(c(S(=O)(=O)Nc5ccsc5C(=O)N[C@@H](CCCNC(=N)N)C(=O)O)c3)OCC4)c2)no1 [Compound 48] please.
a: 86

q: Return reported inhibition at 3 µM. Input compound: N=C(N)NCCC[C@H](NC(=O)c1sccc1NS(=O)(=O)c1cc(-c2cccc(CNCCc3cn[nH]c3)c2)cc2c1OCC2)C(=O)O [Compound 42]
a: 78

q: Fill in reported inhibition at 3 µM for this entry: N=C(N)NCCC[C@H](NC(=O)c1sccc1NS(=O)(=O)c1cccc(NCc2csc(N3CCN(CCO)CC3)n2)c1)C(=O)O [Compound 77]
a: 47

q: Tell me its inhibition at 3 µM given N=C(N)NCCC[C@H](NC(=O)c1sccc1NS(=O)(=O)c1cccc(NCc2csc(C(=O)O)n2)c1)C(=O)O [Compound 72] as the entry.
a: 31

q: Give inhibition at 3 µM for N=C(N)NCCC[C@H](NC(=O)c1sccc1NS(=O)(=O)c1cc(-c2ccccc2CN2CCC(CC(=O)O)CC2)cc2c1OCC2)C(=O)O [Compound 2]
a: 96

q: Give reported inhibition at 3 µM value for N=C(N)NCCC[C@H](NC(=O)c1sccc1NS(=O)(=O)c1cc(-c2cccc(CNCc3ccncc3)c2)cc2c1OCC2)C(=O)O [Compound 32]
a: 75

q: For the compound N=C(N)NCCC[C@H](NC(=O)c1sccc1NS(=O)(=O)c1cc(-c2cccc(CNCc3cc[nH]n3)c2)cc2c1OCC2)C(=O)O [Compound 52] , give its reported inhibition at 3 µM.
a: 77

q: Input Cc1[nH]ncc1CCCNCc1cccc(-c2cc3c(c(S(=O)(=O)Nc4ccsc4C(=O)N[C@@H](CCCNC(=N)N)C(=O)O)c2)OCC3)c1 [Compound 41] , output reported inhibition at 3 µM.
a: 52

q: Quickly give me recorded inhibition at 3 µM for N=C(N)NCCC[C@H](NC(=O)c1sccc1NS(=O)(=O)c1cc(-c2ccccc2CNCCc2cn[nH]c2)cc2c1OCC2)C(=O)O [Compound 47]
a: 86

q: Answer with the recorded inhibition at 3 µM of Cc1ccc(NCCCNCc2cccc(-c3cc4c(c(S(=O)(=O)Nc5ccsc5C(=O)N[C@@H](CCCNC(=N)N)C(=O)O)c3)OCC4)c2)nc1 [Compound 44] only.
a: 78

q: Provide measured inhibition at 3 µM value, entry: N=C(N)NCCC[C@H](NC(=O)c1sccc1NS(=O)(=O)c1cccc(NCc2csc(N3CCNCC3)n2)c1)C(=O)O [Compound 58]
a: 72

q: Read the entry N=C(N)NCCC[C@H](NC(=O)c1sccc1NS(=O)(=O)c1cc(-c2cccc(CNCc3cn[nH]c3)c2)cc2c1OCC2)C(=O)O [Compound 51] and write its reported inhibition at 3 µM.
a: 94

q: Provide inhibition at 3 µM value for the following compound: N=C(N)NCCC[C@H](NC(=O)c1sccc1NS(=O)(=O)c1cccc(NCc2csc(N3CCC(N4CCOCC4)CC3)n2)c1)C(=O)O [Compound 60]
a: 70

q: For the compound N=C(N)NCCC[C@H](NC(=O)c1sccc1NS(=O)(=O)c1cc(-c2ccccc2CNCc2cc[nH]n2)cc2c1OCC2)C(=O)O [Compound 53] , report inhibition at 3 µM.
a: 54

q: Answer with reported inhibition at 3 µM of N=C(N)NCCC[C@H](NC(=O)c1sccc1NS(=O)(=O)c1cc(-c2ccccc2CNCc2ccc(O)nc2)cc2c1OCC2)C(=O)O [Compound 49]
a: 52

q: Note inhibition at 3 µM for the compound shown: N=C(N)NCCC[C@H](NC(=O)c1sccc1NS(=O)(=O)c1cccc(NCc2csc(N3CCN(c4ncncn4)CC3)n2)c1)C(=O)O [Compound 75]
a: 63

q: Give inhibition at 3 µM for N=C(N)NCCC[C@H](NC(=O)c1sccc1NS(=O)(=O)c1cc(-c2ccccc2CNCc2cn[nH]c2)cc2c1OCC2)C(=O)O [Compound 54]
a: 70

q: Find the measured inhibition at 3 µM of Cc1cc(CNCc2ccccc2-c2cc3c(c(S(=O)(=O)Nc4ccsc4C(=O)N[C@@H](CCCNC(=N)N)C(=O)O)c2)OCC3)no1 [Compound 26] and report it.
a: 55

q: Name the recorded inhibition at 3 µM of the compound listed here: N=C(N)NCCC[C@H](NC(=O)c1sccc1NS(=O)(=O)c1cccc(NCc2csc(N3CCN(c4cnccn4)CC3)n2)c1)C(=O)O [Compound 74]
a: 55

q: Please list inhibition at 3 µM recorded for the compound N=C(N)NCCC[C@H](NC(=O)c1sccc1NS(=O)(=O)c1cc(-c2ccccc2CNCc2ccc(N)nc2)cc2c1OCC2)C(=O)O [Compound 39]
a: 61

q: Respond only with inhibition at 3 µM recorded for N=C(N)NCCC[C@H](NC(=O)c1sccc1NS(=O)(=O)c1cc(-c2cccc(CN3CCNCC3)c2)cc2c1OCC2)C(=O)O [Compound 33]
a: 81

q: Check the records and state inhibition at 3 µM for N=C(N)NCCC[C@H](NC(=O)c1sccc1NS(=O)(=O)c1cc(-c2cccc(CNCc3ccc(N)nc3)c2)cc2c1OCC2)C(=O)O [Compound 40]
a: 56

q: Provide one value: measured inhibition at 3 µM of N=C(N)NCCC[C@H](NC(=O)c1sccc1NS(=O)(=O)c1cccc(NCc2csc(C3CCNCC3)n2)c1)C(=O)O [Compound 56]
a: 57
